Attribution: patent US20230331827A1

Target: trypsin
Experiment: phage TRF on trypsin
measurement type: Tryspin binding signal (FU)
Record the value in FU, omitting the unit from your answer.

-- ask For KB_C07 (scFv on phage) (scFv, V domains shown) VH: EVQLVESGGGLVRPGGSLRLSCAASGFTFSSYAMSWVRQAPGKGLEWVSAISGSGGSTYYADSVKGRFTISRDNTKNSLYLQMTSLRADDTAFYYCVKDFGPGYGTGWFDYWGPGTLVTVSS VL: AVNWYQQLPGKAPKLLIYAAVGCPRILMRCKQDSDCLAGCVCGPNGFCGSASGVSDRFSGSKSGTSASLAISGLRSEDEADYYCASWDDSLRGYVFGTGTKVTVLG , write its Tryspin binding signal (FU).
-- reply 43300

-- ask For KB_A09 (scFv on phage) (scFv, V domains shown) VH: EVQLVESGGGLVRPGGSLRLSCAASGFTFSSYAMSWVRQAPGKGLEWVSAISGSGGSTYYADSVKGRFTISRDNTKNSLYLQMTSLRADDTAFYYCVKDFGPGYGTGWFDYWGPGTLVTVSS VL: AVNWYQQLPGKAPKLLIYAAERCPRILMRCKQDSDCLAGCVCGPNGFCGTPSGVPDRFSGSIDTFSNSASLTISGLKTEDEADYYCQSYDSSHHWVFGGGTKLTVLG , write its Tryspin binding signal (FU).
-- reply 57700

-- ask For KB_A03 (scFv on phage) (scFv, V domains shown) VH: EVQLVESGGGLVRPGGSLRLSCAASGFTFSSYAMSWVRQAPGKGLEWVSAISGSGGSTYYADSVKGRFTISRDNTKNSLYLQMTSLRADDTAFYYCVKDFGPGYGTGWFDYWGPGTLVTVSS VL: AVNWYQQLPGKAPKLLINAADRCPRILMRCKQDSDCLAGCVCGPNGFCGTNSGVPDRFSGSSSGNTASLTITGAQAEDEADYYCNSRDSSGNNWVFGGGTKVTVLG , write its Tryspin binding signal (FU).
-- reply 28700

-- ask For KB_C09 (scFv on phage) (scFv, V domains shown) VH: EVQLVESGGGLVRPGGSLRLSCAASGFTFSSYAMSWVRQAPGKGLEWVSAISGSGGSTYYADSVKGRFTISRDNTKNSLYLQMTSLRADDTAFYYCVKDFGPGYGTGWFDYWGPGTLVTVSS VL: AVNWYQQLPGKAPKLLIYAAGRCPRILMRCKQDSDCLAGCVCGPNGFCGGGSGVPDRFSGSIDSSSNSASLTISGLRAEDEADYYCQSYDSSNHWVFGGGTKLTVLG , write its Tryspin binding signal (FU).
-- reply 89400

-- ask For KB_A02 (scFv on phage) (scFv, V domains shown) VH: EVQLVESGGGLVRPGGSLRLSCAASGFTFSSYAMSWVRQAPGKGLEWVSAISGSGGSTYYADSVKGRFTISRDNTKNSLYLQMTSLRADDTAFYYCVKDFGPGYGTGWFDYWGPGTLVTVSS VL: AVNWYQQLPGKAPKLLIYAAAKCPRILMRCKQDSDCLAGCVCGPNGFCGGASGVSDRFSGSIDSSSNSASLTISGLKPEDEGDYYCQSYDSSNRWVFGGGTKVTVLG , write its Tryspin binding signal (FU).
-- reply 183000
